Consider the following binders; for each one, report its pIC50.
target: T1, human GLP-1 receptor (human, UniProt P43220 24-463); assay: displacement of 125I-GLP-1(7-36)NH2, membranes with human GLP-1R, SPA
T1 construct: whole, on cells; the potency assay used whole cells (clone FCW467-12A/KZ10-1)
Numbered stars: 1 amine (or outer) side, 2 acyl side, 3 side chain; on linkers, the order of the positions; unused ones are H or OH. Square brackets hold non-standard residues; d marks the D form. Side chains are listed from the residue outwards. Ends that are not written are not given here. * marks the point of attachment. C18 diacid = O=C(O)CCCCCCCCCCCCCCCCC(=O)*; γGlu = O=C(O)[C@H](CCC(=O)[*:2])N[*:1]; Ac4c = NC1(C(=O)O)CCC1; Aib = CC(C)(N)C(=O)O
Answers are plain numbers, as −log10 of the molar value.

H[Aib]QGTFTSDLSKYLESKRAREFVQWLLK([Gly-Ser-Glu-Gly-Ser-γGlu-γGlu-C18 diacid])T-NH2 = 9.70
H[Ac4c]QGTFTSDLSKYLEERRARDFVQWLLK([Gly-Ser-Glu-Gly-Ser-γGlu-γGlu-C18 diacid])T-NH2 = 9.70
H[Aib]HGTFTSDLSKYLESRRARDFVQWLLK([Gly-Ser-Glu-Gly-Ser-γGlu-γGlu-C18 diacid])T-NH2 = 9.70
H[Aib]QGTFTSDLSKYLESKRAREFVQWLLK([γGlu-γGlu-Ser-Glu-Ser-γGlu-γGlu-C18 diacid])T-NH2 = 9.70
H[Aib]QGTFTSDLSKYLDKRAAREFVAWLLNT-NH2 (not fully specified) = 10.00
H[Aib]QGTFTSDLSKYLESKRAREFVQWLLKT-NH2 (not fully specified) = 9.70
H[Aib]QGTFTSDLSKYLESRRAREFVQWLLKT-NH2 (not fully specified (residue 28)) = 9.40
H[Aib]QGTFTSDLSKYLESKRARSFVQWLLK([γGlu-γGlu-Ser-Glu-Ser-γGlu-γGlu-C18 diacid])T-NH2 = 9.70
H[Ac4c]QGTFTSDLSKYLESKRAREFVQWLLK([Gly-Ser-Glu-Gly-Ser-γGlu-γGlu-C18 diacid])T-NH2 = 9.70

Now consider the entry below.
## Task Name the recorded pIC50 for H[Aib]QGTFTSDLSKYLDKRRAREFVAWLLNT-NH2 (not fully specified (residue 16)) .
## Result 9.05
